These data points were gathered from patent US20110306606A1.

System: Osteoblasts (Calvarial cells)
Details: ICR, mouse, 72 h, 1 μM
Entries and their Cell viability (%) Calvarial cell
Field: numeric (%). Do not append units.

Illustrative cases are given below, each with its answer.
CN1CCN(c2ccc([N+](=O)[O-])c(Nc3cccc(N)c3)n2)CC1 [Compound 77] = 100
O=[N+]([O-])c1ccc(NCc2ccncc2)nc1Nc1ccc(-c2csc(C3CCCCC3)n2)cc1 [Compound 163] = 99
O=[N+]([O-])c1ccc(N2CCOCC2)nc1Nc1ccc(-c2csc(C3CCCCC3)n2)cc1 [Compound 160] = 105

Query: Respond only with Cell viability (%) Calvarial cell recorded for CC(C)(C)c1ccc(Nc2nc(NCCCn3ccnc3)ccc2[N+](=O)[O-])cc1 [Compound 39]
Reply: 111

Query: Check the records and state Cell viability (%) Calvarial cell for Cc1nc(-c2ccc(Nc3nc(N4CCOCC4)ccc3[N+](=O)[O-])cc2)cs1 [Compound 145]
Reply: 96

Query: Please report the measured Cell viability (%) Calvarial cell for Cc1ccc(Nc2nc(N3CCC(O)CC3)ccc2[N+](=O)[O-])cc1 [Compound 5]
Reply: 96

Query: Provide Cell viability (%) Calvarial cell value for the following compound: NC1CCN(c2ccc([N+](=O)[O-])c(Nc3ccc(F)c(F)c3)n2)CC1 [Compound 130]
Reply: 101

Query: Give the reported Cell viability (%) Calvarial cell for this compound. CC(=O)c1cccc(Nc2nc(-n3ccnc3C(C)C)ccc2[N+](=O)[O-])c1 [Compound 101]
Reply: 92

Query: Look up Cell viability (%) Calvarial cell of Nc1ccc(Nc2nc(N3CCNCC3)ccc2[N+](=O)[O-])cc1 [Compound 62] and report it.
Reply: 103

Query: Consider the compound O=[N+]([O-])c1ccc(NCc2ccncc2)nc1Nc1ccc(N2CCOCC2)cc1 [Compound 116] and give its recorded Cell viability (%) Calvarial cell.
Reply: 89

Query: Given Cc1nccn1-c1ccc([N+](=O)[O-])c(Nc2cccc(N)c2)n1 [Compound 85] , respond with its Cell viability (%) Calvarial cell.
Reply: 101

Query: Consider the compound Nc1cccc(Nc2nc(N3CCOCC3)ccc2[N+](=O)[O-])c1 [Compound 78] . State its measured Cell viability (%) Calvarial cell.
Reply: 93

Query: State its Cell viability (%) Calvarial cell: CCCCc1ccc(Nc2nc(NCCCn3ccnc3)ccc2[N+](=O)[O-])cc1 [Compound 56]
Reply: 104

Query: Please indicate Cell viability (%) Calvarial cell recorded for O=[N+]([O-])c1ccc(NCCc2ccccn2)nc1Nc1ccc(-c2csc(C3CCCCC3)n2)cc1 [Compound 164]
Reply: 104

Query: Note Cell viability (%) Calvarial cell for the compound shown: NC1CCN(c2ccc([N+](=O)[O-])c(Nc3ccc(N4CCOCC4)cc3)n2)CC1 [Compound 121]
Reply: 100

Query: Answer with the recorded Cell viability (%) Calvarial cell for the compound listed here: Nc1ccc(Nc2nc(N3CCC(O)CC3)ccc2[N+](=O)[O-])cc1 [Compound 61]
Reply: 102

Query: Give reported Cell viability (%) Calvarial cell value for CC(C)c1nccn1-c1ccc([N+](=O)[O-])c(Nc2ccc(C#N)cc2)n1 [Compound 49]
Reply: 96
